# METHOD NOTES: Log P by HPLC on reversed phase columns (EEC directive 79/831 Annex V.A8; methods [a], [b], [c])
# Type: physicochemical
# EXPERIMENTAL CONDITIONS: reversed phase HPLC column; method [a]: LC-UV, acidic range, 0.1% formic acid in water and acetonitrile as eluent (linear gradient from 10% to 95% acetonitrile)
VALUE TYPE: chromatographic logP
The response must contain the number and no unit.

The examples below pair each entry with its known result.
>  <MOLECULE>
O=C(Cn1cncc1Br)c1ccc(Oc2ccc(Br)cc2)cc1Br [IX-36]

>  <chromatographic logP>
3.16

$$$$
>  <MOLECULE>
N#Cc1cncn1CC(=O)c1ccc(Oc2ccc(Cl)cn2)cc1C(F)(F)F [IX-71]

>  <chromatographic logP>
3.01

$$$$
>  <MOLECULE>
N#Cc1cncn1CC(=O)c1cnc(Oc2ccc(Cl)cc2)cc1Br [IX-92]

>  <chromatographic logP>
3.08

$$$$
>  <MOLECULE>
O=C(Cn1cncc1Br)c1ccc(Cl)cc1Cl [IX-20]

>  <chromatographic logP>
1.94

$$$$
>  <MOLECULE>
O=C(Cn1cncc1Cl)c1cnc(Oc2ccc(Cl)cc2)cc1Br [IX-50]

>  <chromatographic logP>
2.82

$$$$

QUERY: Quick one: chromatographic logP for O=C(Cn1cncc1Cl)c1ccc(F)cc1Br [IX-35] ?
RESULT: 1.57

QUERY: Quick check: chromatographic logP of CC(=O)c1cncn1CC(=O)c1cnc(Oc2ccc(Cl)cc2)cc1C(F)(F)F [IX-120] ?
RESULT: 3.55

---

# METHOD NOTES: Log P by HPLC on reversed phase columns (EEC directive 79/831 Annex V.A8; methods [a], [b], [c])
# Format: physicochemical
# EXPERIMENTAL CONDITIONS: reversed phase HPLC column; method [a], HPLC on reversed phase columns
# Method: Measurement of Log P values was performed according to EEC directive 79/831 Annex V.A8 by HPLC (High Performance Liquid Chromatography) on reversed phase columns with the following methods: • ^[a] Log P value is determined by measurement of LC-UV, in an acidic range, with 0.1% formic acid in water and acetonitrile as eluent (linear gradient from 10% acetonitrile to 95% acetonitrile). • ^[b] […]
VALUE TYPE: chromatographic logP
The answer should be written as a number, with no unit following it.

>  <COMPOUND>
N#Cc1cncn1CC(O)(C=CC1CCCCC1)C1(Cl)CC1 (centres unmarked) [I-663]

>  <chromatographic logP>
3.48

$$$$

From here, focus on the item given below.
QUERY: Consider the compound shown here: N#Cc1cncn1CC(O)(CCC1CCCCC1)C1(Cl)CC1 (centres unmarked) [I-660] What is its recorded chromatographic logP?
RESULT: 3.79

---

# METHOD NOTES: Log P by HPLC on reversed phase columns (EEC directive 79/831 Annex V.A8; methods [a], [b], [c])
# Assay type: physicochemical
# EXPERIMENTAL CONDITIONS: reversed phase HPLC column; method [a]: LC-UV, acidic range, 0.1% formic acid in water and acetonitrile as eluent (linear gradient from 10% to 95% acetonitrile)
# Experimental: Measurement of Log P values was performed according to EEC directive 79/831 Annex V.A8 by HPLC (High Performance Liquid Chromatography) on reversed phase columns with the following methods: • ^[a] Log P value is determined by measurement of LC-UV, in an acidic range, with 0.1% formic acid in water and acetonitrile as eluent (linear gradient from 10% acetonitrile to 95% acetonitrile). • ^[b] […]
VALUE TYPE: chromatographic logP
Give your answer as a number; write no unit.

For orientation, consider the following solved cases.
>  <STRUCTURE AS SMILES>
CC(=O)c1cncn1CC(=O)c1cnc(Oc2ccc(Cl)cc2F)cc1C(F)(F)F

>  <chromatographic logP>
3.21

$$$$
>  <STRUCTURE AS SMILES>
N#Cc1cncn1CC(=O)c1cnc(Oc2ccc(C(F)F)cc2)cc1C(F)(F)F

>  <chromatographic logP>
3.13

$$$$
>  <STRUCTURE AS SMILES>
N#Cc1cncn1CC(=O)c1cnc(Oc2ccc(C(F)(F)F)cc2)cc1C(F)(F)F

>  <chromatographic logP>
3.42

$$$$
>  <STRUCTURE AS SMILES>
O=C(Cn1cncc1F)c1cnc(Oc2ccc(C(F)(F)F)cc2)cc1Br

>  <chromatographic logP>
2.64

$$$$
>  <STRUCTURE AS SMILES>
N#Cc1cncn1CC(=O)c1ccc(Oc2ccc(I)cc2)cc1Br

>  <chromatographic logP>
3.8

$$$$

QUERY: What chromatographic logP value was documented for this molecule, `N#Cc1cncn1CC(=O)c1ccc(Cl)cc1Cl` ?
RESULT: 2.34

QUERY: Look up chromatographic logP: `O=C(Cn1cncc1F)c1cnc(Oc2ccc(Cl)cc2)cc1Br`
RESULT: 2.39

QUERY: Dear colleague, I am looking for the recorded chromatographic logP of the following molecule: `O=C(Cn1cncc1F)c1cnc(Oc2ccc(Cl)cc2F)cc1C(F)(F)F`
RESULT: 2.84

QUERY: Fill blank: measured chromatographic logP of the molecule `COc1ccc(Oc2ccc(C(=O)Cn3cncc3Cl)c(Cl)n2)c(Cl)c1` is ____.
RESULT: 2.64

QUERY: Suppose we examine the molecule `O=C(Cn1cncc1F)c1cnc(Oc2ccc(Br)cc2)cc1C(F)(F)F` ; what chromatographic logP value has been reported?
RESULT: 2.73
